- study.system: Human recombinant liver glycogen phosphorylase a (hrl GPa) (Homo sapiens, UniProt P06737)
- Sequence (P06737 whole entry): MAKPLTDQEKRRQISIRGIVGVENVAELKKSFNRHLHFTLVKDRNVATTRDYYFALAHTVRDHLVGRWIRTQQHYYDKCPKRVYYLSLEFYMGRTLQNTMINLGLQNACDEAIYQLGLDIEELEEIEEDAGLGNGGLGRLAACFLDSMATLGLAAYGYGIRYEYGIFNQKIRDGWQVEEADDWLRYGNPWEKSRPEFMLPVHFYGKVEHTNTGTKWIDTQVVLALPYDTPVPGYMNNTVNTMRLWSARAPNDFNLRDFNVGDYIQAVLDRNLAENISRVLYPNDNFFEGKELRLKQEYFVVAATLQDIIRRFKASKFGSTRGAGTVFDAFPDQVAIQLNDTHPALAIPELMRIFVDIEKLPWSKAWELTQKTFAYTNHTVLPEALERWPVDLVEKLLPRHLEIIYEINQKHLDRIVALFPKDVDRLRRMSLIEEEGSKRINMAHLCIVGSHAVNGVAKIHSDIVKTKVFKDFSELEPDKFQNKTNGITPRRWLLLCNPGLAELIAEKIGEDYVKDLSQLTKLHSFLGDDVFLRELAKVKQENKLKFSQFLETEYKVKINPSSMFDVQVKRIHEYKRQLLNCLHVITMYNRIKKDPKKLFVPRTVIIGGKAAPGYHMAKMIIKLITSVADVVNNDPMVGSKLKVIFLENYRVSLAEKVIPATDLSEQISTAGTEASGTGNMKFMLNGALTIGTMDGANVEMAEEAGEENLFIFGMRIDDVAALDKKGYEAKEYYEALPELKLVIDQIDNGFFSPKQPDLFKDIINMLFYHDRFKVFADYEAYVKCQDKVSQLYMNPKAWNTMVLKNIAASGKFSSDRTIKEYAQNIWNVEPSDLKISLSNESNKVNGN
- run.description: Glycogen phosphorylase a inhibition, glycogen degradation (multienzyme coupled assay, NADH fluorescence)
- condition.notes: glycogen degradation direction
- Experimental: The activity of the compounds is alternatively determined by measuring the inhibitory effect of the compounds on glycogen degradation, the production of glucose-1-phosphate from glycogen is monitored by the multienzyme coupled assay, as described in EP 0 846 464 A2, general method of Pesce et al (Pesce, M A, Bodourian, S H, Harris, R C, and Nicholson, J F (1977) Clinical Chemistry 23, 1171–1717). […] Relative Fluoresence Units (RFUs) are measured at 340 nm excitation, 465 nm emission. […]
parameter.measured: IC50

// query Give the reported IC50 for this compound. Cc1csc(NC(=O)CN2C(=O)C(NC(=O)c3cc4cc(Cl)ccc4[nH]3)Cc3ccccc32)n1 (stereo not shown)
// result 4.6 µM
